target: USP28 (His-tagged USP28-FL-mammalian) (Homo sapiens, UniProt Q96RU2); construct: Expression of USP28 (1-1077)-TEV-6*His (pTT5 vector); made in house; host or cells: Expi293f cells (pTT5 vector); assay: Ubiquitin-Rhodamine 110 Assay for USP28 Activity, Example A-1(a); assay type: biochemical; conditions: Ubiquitin-Rhodamine 110 assay, Example A-1(a); read-out: USP28 A-1(a) IC50 range
Sequence (Q96RU2 whole entry): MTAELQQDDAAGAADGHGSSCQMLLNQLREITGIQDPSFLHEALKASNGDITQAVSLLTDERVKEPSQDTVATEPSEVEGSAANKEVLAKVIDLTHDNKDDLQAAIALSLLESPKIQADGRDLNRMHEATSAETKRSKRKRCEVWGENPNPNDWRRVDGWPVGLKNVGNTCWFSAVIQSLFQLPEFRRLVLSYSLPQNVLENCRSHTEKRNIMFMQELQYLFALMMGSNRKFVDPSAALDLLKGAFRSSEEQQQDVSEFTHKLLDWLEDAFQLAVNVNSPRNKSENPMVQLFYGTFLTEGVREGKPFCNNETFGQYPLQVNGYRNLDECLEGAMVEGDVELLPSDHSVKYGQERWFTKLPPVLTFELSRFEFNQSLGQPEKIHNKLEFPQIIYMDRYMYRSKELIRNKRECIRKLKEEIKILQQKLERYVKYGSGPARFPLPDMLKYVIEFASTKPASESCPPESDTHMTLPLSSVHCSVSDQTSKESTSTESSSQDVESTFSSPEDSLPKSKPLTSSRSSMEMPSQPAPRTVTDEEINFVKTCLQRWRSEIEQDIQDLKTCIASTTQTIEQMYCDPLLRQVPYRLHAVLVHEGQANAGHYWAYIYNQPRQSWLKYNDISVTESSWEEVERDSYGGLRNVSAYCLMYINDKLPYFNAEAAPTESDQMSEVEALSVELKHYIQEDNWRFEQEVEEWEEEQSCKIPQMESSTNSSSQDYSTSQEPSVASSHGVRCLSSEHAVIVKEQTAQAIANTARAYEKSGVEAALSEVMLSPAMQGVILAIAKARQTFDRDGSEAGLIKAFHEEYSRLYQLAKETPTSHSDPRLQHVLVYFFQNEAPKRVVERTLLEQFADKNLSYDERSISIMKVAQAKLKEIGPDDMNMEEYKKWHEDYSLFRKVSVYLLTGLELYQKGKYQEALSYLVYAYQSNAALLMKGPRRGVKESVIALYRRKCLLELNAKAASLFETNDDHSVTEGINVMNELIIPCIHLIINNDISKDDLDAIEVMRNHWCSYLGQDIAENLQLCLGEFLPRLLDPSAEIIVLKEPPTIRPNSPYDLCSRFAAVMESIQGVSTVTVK

molecule: Cc1ccc2c(N)c(C(=O)N[C@H]3COc4cc(N5C[C@H]6CC[C@@H]5CN6)ncc4C3)sc2n1 [Example 76]
IC50: 1 to 50 nM
//
molecule: Cc1nc2sc(C(=O)N[C@H]3COc4c(F)c(N5CCNCC5)cc(F)c4C3)c(N)c2s1 [Example 56]
IC50: 1 to 50 nM
//
molecule: Cc1ccc2c(N)c(C(=O)N[C@H]3COc4cc(C5CC6COCC(C5)N6)ccc4C3)sc2n1 (stereo partly drawn) [Example 125]
IC50: 1 to 50 nM
